# assay-target: Soluble epoxide hydrolases (human recombinant) (Homo sapiens)
# Sequence (P34913 1-555): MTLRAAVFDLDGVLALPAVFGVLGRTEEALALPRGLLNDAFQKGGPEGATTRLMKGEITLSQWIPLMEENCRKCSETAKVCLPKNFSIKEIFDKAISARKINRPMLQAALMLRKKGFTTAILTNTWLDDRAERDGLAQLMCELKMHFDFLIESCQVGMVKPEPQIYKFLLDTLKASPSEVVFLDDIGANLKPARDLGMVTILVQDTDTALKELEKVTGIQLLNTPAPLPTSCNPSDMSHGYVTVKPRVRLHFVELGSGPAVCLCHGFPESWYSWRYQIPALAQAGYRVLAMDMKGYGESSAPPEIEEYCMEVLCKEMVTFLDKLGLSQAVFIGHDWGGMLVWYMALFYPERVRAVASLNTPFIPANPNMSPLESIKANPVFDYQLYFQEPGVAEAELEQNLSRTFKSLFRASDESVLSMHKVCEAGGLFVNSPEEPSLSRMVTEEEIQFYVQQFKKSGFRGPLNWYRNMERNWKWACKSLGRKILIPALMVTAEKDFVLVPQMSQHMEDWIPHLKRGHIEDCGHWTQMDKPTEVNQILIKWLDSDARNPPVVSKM
# test-method-notes: biochemical
# assay-setup: PHOME hydrolysis, pH 7.0, 37 °C; triplicate; read-out: sEH IC50
Listed here: items and their measured IC50.
Please reply with the bare figure in µM and do not write the unit itself.

See these solved cases before continuing.
- structure-as-smiles: "Cc1ccc(-c2ccc(O)cc2)c(C(=C2C=CC(=O)C=C2)c2ccc(O)cc2)c1C#Cc1ccc(O)cc1"
  assay-target: "Soluble epoxide hydrolases (human recombinant) (Homo sapiens)"
  measurement-unit: "µM"
  IC50: 8.2
- structure-as-smiles: "O=C1C=CC(=C(c2ccc(O)cc2)c2c(C#Cc3ccc(O)cc3)cccc2-c2ccc(O)cc2)C=C1"
  assay-target: "Soluble epoxide hydrolases (human recombinant) (Homo sapiens)"
  measurement-unit: "µM"
  IC50: 3.1

Record "O=C1C=CC(=C(c2ccc(O)cc2)c2c(-c3ccc(O)cc3)ccc(CO)c2C#Cc2ccc(O)cc2)C=C1" , field IC50: 4.2

====

# assay-target: sEH (Homo sapiens)
# Sequence (P34913 1-555): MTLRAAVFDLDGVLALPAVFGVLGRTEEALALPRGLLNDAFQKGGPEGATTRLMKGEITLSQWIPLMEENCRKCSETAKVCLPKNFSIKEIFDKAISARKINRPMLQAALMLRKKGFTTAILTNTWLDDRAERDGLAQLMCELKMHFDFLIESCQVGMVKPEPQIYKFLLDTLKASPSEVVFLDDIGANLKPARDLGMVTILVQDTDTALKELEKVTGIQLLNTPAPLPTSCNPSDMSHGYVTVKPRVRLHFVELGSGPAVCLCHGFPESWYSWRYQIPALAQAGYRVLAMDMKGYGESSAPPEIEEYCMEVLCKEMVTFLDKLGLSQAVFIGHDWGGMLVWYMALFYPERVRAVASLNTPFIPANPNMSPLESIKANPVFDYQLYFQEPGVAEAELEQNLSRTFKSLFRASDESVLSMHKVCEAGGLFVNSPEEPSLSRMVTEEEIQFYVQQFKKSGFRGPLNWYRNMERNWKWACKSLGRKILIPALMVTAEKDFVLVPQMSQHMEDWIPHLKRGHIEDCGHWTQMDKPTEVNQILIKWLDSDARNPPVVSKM
test-readout: pKi
Keep it numeric: pKi is minus log10 of the concentration in mol/L.

See these solved cases before continuing.
- structure-as-smiles: "Cc1ccc(-c2ccc(O)cc2)c(C(=C2C=CC(=O)C=C2)c2ccc(O)cc2)c1C#Cc1ccc(O)cc1"
  observed-measurement: 5.17
- structure-as-smiles: "O=C1C=CC(=C(c2ccc(O)cc2)c2c(-c3ccc(O)cc3)ccc(CO)c2C#Cc2ccc(O)cc2)C=C1"
  observed-measurement: 5.74

Please look at the following compound next.
With sEH (Homo sapiens) as the test system, "O=C1C=CC(=C(c2ccc(O)cc2)c2c(C#Cc3ccc(O)cc3)cccc2-c2ccc(O)cc2)C=C1" showed pKi of 5.54
